- assayProtocol: Volume of distribution at steady state in Lewis rat at 0.5 mg/kg, iv
- Type: ADME, organism-based
- Design: dose 0.5 mg/kg, route intravenous
- condition: in vivo, read-out: Vdss

[
  {
    "molecule": "Cc1ccc(C(=O)NC2CC2)cc1-c1ccc(C(=O)NCC2CC2)cc1",
    "Vd": "0.6 L/kg"
  }
]

----------
- assayProtocol: Terminal half life in Lewis rat plasma at 0.5 mg/kg, iv
- Format: ADME, organism-based
- Parameters: dose 0.5 mg/kg, route intravenous
- condition: read-out: beta t1/2 (converted)

[
  {
    "molecule": "Cc1ccc(C(=O)NC2CC2)cc1-c1ccc(C(=O)NCC2CC2)cc1",
    "half-life (h)": 1.3
  }
]
